B1: ZNF8 (parent)
chain: VHVIGVEEPSVGASMLFDIREST

variants of: B1; assay: protein stability index of a GFP-peptide fusion (GPS, HEK-293T) (PSI 1-6); higher = more stable; settings: c terminus: native;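 note: lentivirally expressed fusions sorted by FACS into six bins by GFP to DsRed ratio, PSI derived from sequencing read proportions per bin multiplied by bin number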
assay.readout: protein stability index

> print(dat)
    variant.label  experimental.result
 1            I4F                 2.13
 2            G5N                 2.18
 3            H2S                 2.81
 4           R20Q                 2.36
 5            P9V                 1.44
 6            V3E                  4.1
 7           D18K                 1.42
 8            V1W                 2.06
 9            P9C                 1.87
10           S22H                 2.55
11            V6M                 1.76
12           S22N                 3.08
13            V6T                 2.33
14           T23N                 2.14
15           E21W                 3.39
16           L16G                 2.95
17            E8N                 1.48
18            V3A                 3.18
19            E8A                 2.25
20           S10T                 2.24
21            H2T                 1.79
22            V6H                 2.46
